experiment: Free radical scavenging with DPPH; conditions: DPPH; comparative, Table 13; read-out: Free radical scavenging ability EC50
METRIC NAME: pEC50
Field pEC50 (float): negative decimal logarithm of the concentration in molar.

q: Quick one: pEC50 for Oc1cccc(C2=Cc3ccc(O)cc3OC2)c1 [Compound 37-DHE, 3′,7-dihydroxy-isoflav-3-ene, reference compound] ?
a: 4.26

----------
target: GAL4-PPARγ fusion protein (Homo sapiens, UniProt P37231); construct: host or cells: HEK293 (human embryonic kidney), stably transfected; assay: PPARγ activity in transfected HEK293 cells (beta-lactamase reporter); assay type: cell-based; details: FIG. 13: 1 μM
Sequence (P37231 238-503 limits assumed): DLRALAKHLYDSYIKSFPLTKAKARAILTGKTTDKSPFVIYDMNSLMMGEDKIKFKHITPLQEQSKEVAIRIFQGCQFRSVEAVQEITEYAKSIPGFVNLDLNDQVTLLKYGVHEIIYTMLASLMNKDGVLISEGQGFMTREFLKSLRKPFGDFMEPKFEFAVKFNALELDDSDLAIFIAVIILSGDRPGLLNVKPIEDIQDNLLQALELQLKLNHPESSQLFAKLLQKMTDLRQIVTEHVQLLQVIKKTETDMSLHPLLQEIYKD
Sequence (P04386 1-147 partner limits assumed): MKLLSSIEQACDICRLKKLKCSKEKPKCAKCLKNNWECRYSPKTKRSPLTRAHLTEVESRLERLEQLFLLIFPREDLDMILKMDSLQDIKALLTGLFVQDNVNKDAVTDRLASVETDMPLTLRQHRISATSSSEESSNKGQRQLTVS
METRIC NAME: PPARγ activation, increase in beta-lactamase activity over media only control

Below are worked cases with known answers.
| MOLECULE | SYSTEM TESTED | READING |
| --- | --- | --- |
| COc1ccc(CN2COc3cc4c(cc3C2)C=C(c2ccc(O)cc2)CO4)cc1 | GAL4-PPARγ fusion protein (Homo sapiens, UniProt P37231) | PPARγ agonist activity |
| CC(c1ccccc1)N1COc2cc3c(cc2C1)C=C(c1ccc(O)cc1)CO3 (stereo not drawn) | GAL4-PPARγ fusion protein (Homo sapiens, UniProt P37231) | PPARγ agonist activity |
| Cc1ccc(N2COc3cc4c(cc3C2)C=C(c2ccc(O)cc2)CO4)cc1 | GAL4-PPARγ fusion protein (Homo sapiens, UniProt P37231) | PPARγ agonist activity |
| O=[N+]([O-])c1cccc(N2COc3cc4c(cc3C2)C=C(c2ccc(O)cc2)CO4)c1 | GAL4-PPARγ fusion protein (Homo sapiens, UniProt P37231) | PPARγ agonist activity |
| CCCN1COc2cc3c(cc2C1)C=C(c1ccc(O)cc1)C(CC)O3 (stereo not drawn) | GAL4-PPARγ fusion protein (Homo sapiens, UniProt P37231) | PPARγ agonist activity |
| CC(C)(C)c1ccc(CN2COc3cc4c(cc3C2)C=C(c2ccc(O)cc2)CO4)cc1 | GAL4-PPARγ fusion protein (Homo sapiens, UniProt P37231) | PPARγ agonist activity |

q: Quick one: PPARγ activation, increase in beta-lactamase activity over media only control for Oc1ccc(C2=Cc3cc4c(cc3OC2)OCN(c2ccccc2)C4)cc1 ?
a: PPARγ agonist activity

q: Quick one: PPARγ activation, increase in beta-lactamase activity over media only control for Cc1cccc(N2COc3cc4c(cc3C2)C=C(c2ccc(O)cc2)CO4)c1 ?
a: PPARγ agonist activity

q: Quick one: PPARγ activation, increase in beta-lactamase activity over media only control for Cc1ccc(N2COc3cc4c(cc3C2)C=C(c2cccc(O)c2)CO4)cc1 ?
a: PPARγ agonist activity

----------
Give pEC50 for every item shown.
assay: Free radical scavenging with DPPH; settings: DPPH, 20 minutes, absorbance 517 nm; Table 4; read-out: Free radical scavenging ability EC50
Field pEC50 (float): negative decimal logarithm of the concentration in molar.

q: Quick one: pEC50 for COc1ccc(C2=Cc3cc4c(c(C)c3OC2)OCN(c2ccc(C)cc2)C4)cc1OC [Compound 19] ?
a: 4.39

q: Quick one: pEC50 for Cc1c2c(cc3c1OCN(c1ccc(O)cc1)C3)C=C(c1cccc(O)c1)CO2 [Compound 26] ?
a: 4.59

q: Quick one: pEC50 for Cc1cccc(N2COc3cc4c(cc3C2)C=C(c2ccc(O)cc2)CO4)c1 [Compound 22] ?
a: 4.68

q: Quick one: pEC50 for Oc1ccc(C2=Cc3cc4c(cc3OC2)OCN(c2ccc(O)cc2)C4)cc1 [Compound 8] ?
a: 4.80

q: Quick one: pEC50 for COc1ccc(C2=Cc3cc4c(c(C)c3OC2)OCN(Cc2ccccc2)C4)cc1OC [Compound 13] ?
a: 4.39

q: Quick one: pEC50 for N#Cc1ccc(N2COc3cc4c(cc3C2)C=C(c2cccc(O)c2)CO4)cc1 [Compound 21] ?
a: 4.36

q: Quick one: pEC50 for CCCN1COc2cc3c(cc2C1)C=C(c1ccc(O)cc1)C(CC)O3 (centres unmarked) [Compound 27] ?
a: 4.59

q: Quick one: pEC50 for CN1COc2cc3c(cc2C1)C=C(c1ccc(O)cc1)CO3 [Compound 4] ?
a: 4.65

----------
Give EC50 for every item shown.
test: Free radical scavenging with DPPH; settings: DPPH, 20 minutes, absorbance 517 nm; Table 4; read-out: Free radical scavenging ability EC50
Just the number please, in µM, no unit attached.

q: Quick one: EC50 for Oc1ccc(C2=Cc3cc4c(cc3OC2)OCN(Cc2ccc(Cl)cc2)C4)cc1 ?
a: 22.5

q: Quick one: EC50 for CCCN1COc2cc3c(cc2C1)C=C(c1ccc(O)cc1)CO3 ?
a: 20

q: Quick one: EC50 for Cc1ccc(N2COc3cc4c(cc3C2)C=C(c2cccc(O)c2)CO4)cc1 ?
a: 38

q: Quick one: EC50 for Oc1ccc(C2=Cc3cc4c(cc3OC2)OCN(c2ccccc2)C4)cc1 ?
a: 22.5

q: Quick one: EC50 for COCCCN1COc2cc3c(cc2C1)C=C(c1ccc(O)cc1)CO3 ?
a: 22

----------
Give pIC50 for every item shown.
system: A10 smooth muscle cells; assay: Proliferation of A10 smooth muscle cells from the media of rat aorta; format: cell-based; details: A10, 72 h, three days, read-out: IC50, inhibition of proliferation in A10 cells
Field pIC50 (float): negative decimal logarithm of the concentration in molar.

q: Quick one: pIC50 for Oc1ccc(C2=Cc3cc4c(cc3OC2)OCN(Cc2ccccc2)C4)cc1 [Compound 1] ?
a: 4.96

q: Quick one: pIC50 for Oc1cccc(C2=Cc3ccc(O)cc3OC2)c1 [Compound 37-DHE, 3′,7-dihydroxy-isoflav-3-ene, reference compound] ?
a: 4.51

----------
tested on: neonatal foreskin fibroblasts (NFF); test: Toxicity to normal cells, neonatal foreskin fibroblasts; type: cell-based; settings: Fibroblast; normal, non-transformed cells; read-out: IC50 μM, NFF Fibroblast
API: label(entry) gives T if the entry's IC50 is strictly smaller than 40 µM; on equality or larger values it gives F.

q: # check: IC50 < 40 µM for Oc1ccc(C2=Cc3cc4c(cc3OC2)OCN(Cc2ccccc2)C4)cc1
a: T

q: # check: IC50 < 40 µM for CC(c1ccccc1)N1COc2cc3c(cc2C1)C=C(c1ccc(O)cc1)CO3 (stereo not drawn)
a: T

q: # check: IC50 < 40 µM for Oc1ccc(C2=Cc3cc4c(cc3OC2)OCN(c2ccccc2)C4)cc1
a: F

q: # check: IC50 < 40 µM for COCCCN1COc2cc3c(cc2C1)C=C(c1cccc(O)c1)CO3
a: F

q: # check: IC50 < 40 µM for CCCN1COc2cc3c(cc2C1)C=C(c1ccc(O)cc1)CO3
a: F

----------
assay: Free radical scavenging with DPPH; settings: DPPH, 20 minutes, absorbance 517 nm; Table 4; read-out: Free radical scavenging ability EC50
Give EC50 for every item shown.
Just the number please, in µM, no unit attached.

q: Quick one: EC50 for CC(c1ccccc1)N1COc2cc3c(cc2C1)C=C(c1ccc(O)cc1)CO3 (centres unmarked) [Compound 2] ?
a: 21.4

q: Quick one: EC50 for COc1ccc(CN2COc3cc4c(cc3C2)C=C(c2ccc(O)cc2)CO4)cc1 [Compound 6] ?
a: 24

q: Quick one: EC50 for COCCCN1COc2cc3c(cc2C1)C=C(c1cccc(O)c1)CO3 [Compound 17] ?
a: 40

q: Quick one: EC50 for CCCN1COc2c(cc3c(c2Br)OCC(c2ccc(O)cc2)=C3)C1 [Compound 25] ?
a: 23

q: Quick one: EC50 for O=[N+]([O-])c1cccc(N2COc3cc4c(cc3C2)C=C(c2ccc(O)cc2)CO4)c1 [Compound 23] ?
a: 27

q: Quick one: EC50 for Cc1ccc(N2COc3cc4c(cc3C2)C=C(c2ccc(O)cc2)CO4)cc1 [Compound 18] ?
a: 29

q: Quick one: EC50 for COc1ccc(C2=C(c3ccc(O)cc3)COc3cc4c(cc32)CN(Cc2ccc(Cl)cc2)CO4)cc1 [Compound 24] ?
a: 24

q: Quick one: EC50 for COc1ccc(CN2COc3cc4c(cc3C2)C=C(c2ccc(OC)c(OC)c2)CO4)cc1 [Compound 9] ?
a: 36

----------
test system: Rabbit kidney (RK-13) cells; test: Toxicity to normal cells, rabbit kidney (RK-13) cells; assay type: cell-based; details: Oryctolagus cuniculus, read-out: toxicity to RK-13 cells (IC50)
pIC50: −log10 of the molar value.
METRIC NAME: pIC50

q: Quick one: pIC50 for CC(c1ccccc1)N1COc2cc3c(cc2C1)C=C(c1ccc(O)cc1)CO3 (stereo not shown) [Compound 2] ?
a: < 4.52
